# assayed-target: Glycogen synthase kinase-3 alpha (Homo sapiens) (UniProt P49840)
# Sequence (P49840 whole entry, looked up): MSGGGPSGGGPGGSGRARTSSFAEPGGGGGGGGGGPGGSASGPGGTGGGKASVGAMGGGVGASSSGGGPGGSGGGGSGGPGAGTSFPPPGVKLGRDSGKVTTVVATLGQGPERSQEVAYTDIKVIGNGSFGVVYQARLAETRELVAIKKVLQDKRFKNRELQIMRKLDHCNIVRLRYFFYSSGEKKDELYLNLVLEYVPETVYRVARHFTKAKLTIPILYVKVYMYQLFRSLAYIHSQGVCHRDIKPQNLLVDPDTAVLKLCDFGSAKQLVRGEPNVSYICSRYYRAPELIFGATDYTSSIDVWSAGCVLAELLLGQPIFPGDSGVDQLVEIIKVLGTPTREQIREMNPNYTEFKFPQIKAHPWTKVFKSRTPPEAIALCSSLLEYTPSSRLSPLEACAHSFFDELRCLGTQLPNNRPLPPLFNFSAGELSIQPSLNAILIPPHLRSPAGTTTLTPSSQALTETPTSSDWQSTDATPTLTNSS
# protocol-notes: concentration-response blocking of human GSK3A – biochemical, luminescence, cell-free homogeneous, retest, dose response (AID 463203)
# settings: GSK-3 alpha enzyme, ADP-Glo luminescence, 60 min
Activity calls are given as the source filed them.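 How the source made its calls: active means more than half of replicate measurements showing over 20% loss of kinase signal relative to plate controls; inconclusive means some but at most half of replicates over 20% loss; inactive means no replicate over 20% signal loss.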
Classes used: 1.0 = active, 0.0 = inactive

>  <molecule>
Cc1cc2[nH]c(=S)[nH]c2cc1C

>  <group-label>
0.0

$$$$
>  <molecule>
O=C(NCCCN1CCCC1)c1cc2c(Cl)nc3ccccc3c2s1

>  <group-label>
0.0

$$$$
>  <molecule>
CCC(C)Nc1nc(N)c([N+](=O)[O-])c(N2CCCCCC2)n1 (stereo not given)

>  <group-label>
1.0

$$$$
>  <molecule>
O=[N+]([O-])c1ccc(-c2nnc(CNC3CCCC3)o2)cc1

>  <group-label>
0.0

$$$$
>  <molecule>
CCCCc1ccc(NC(=O)N[C@@H](CC(C)C)C(=O)O)cc1

>  <group-label>
0.0

$$$$

----------
# assayed-target: UniProt P49840
# protocol-notes: concentration-response blocking of human GSK3A – biochemical, luminescence, cell-free homogeneous, retest, dose response (AID 463203)
# settings: GSK-3 alpha enzyme, ADP-Glo luminescence, 60 min
Calls of active or inactive are those of the source.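 Rule for the calls: active = more than half of replicate measurements showing over 20% loss of kinase signal relative to plate controls; inconclusive = some but at most half of replicates over 20% loss; inactive = no replicate over 20% signal loss.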
Classes used: yes = active, no = inactive

>  <molecule>
CC(=O)c1cccc(NC(=O)c2cc(-n3cnnc3)ccc2Cl)c1

>  <group-label>
no

$$$$
>  <molecule>
CCCCc1cc(=O)oc2cc(O)ccc12

>  <group-label>
yes

$$$$
>  <molecule>
Cc1csc(NC(=O)C2CCCN2C(=O)OCC(C)C)n1 (stereo unspecified)

>  <group-label>
no

$$$$
>  <molecule>
COc1ccccc1Nc1nc2c(s1)CCC2

>  <group-label>
no

$$$$
>  <molecule>
Cc1nc(SCC(=O)Nc2nc3ccccc3s2)n[nH]1

>  <group-label>
no

$$$$
>  <molecule>
Brc1ccc(C2=Nn3c(nnc3-c3cccnc3)SC2)s1

>  <group-label>
no

$$$$
>  <molecule>
CCSc1ncnc2c1sc1nc3c(cc12)COC(C)(C)C3

>  <group-label>
no

$$$$
>  <molecule>
CNc1cc(N2CCCC2)ccc1[N+](=O)[O-]

>  <group-label>
no

$$$$
>  <molecule>
COc1cccc(-c2c(C(=O)N/N=C(\C)c3cccs3)nnn2-c2nonc2N)c1

>  <group-label>
yes

$$$$
>  <molecule>
COc1ccc(/C=N/NC(=O)CSCc2ccc([N+](=O)[O-])cc2)cc1OC

>  <group-label>
no

$$$$
>  <molecule>
O=c1cc(-c2ccc(O)cc2)oc2c1ccc1ccccc12

>  <group-label>
yes

$$$$
>  <molecule>
Cc1ccc(CSCCNC(=O)c2ccccc2)cc1

>  <group-label>
no

$$$$
>  <molecule>
O=S(=O)(O)c1cccc(N=Nc2c(O)ccc3ccccc23)c1

>  <group-label>
yes

$$$$
>  <molecule>
COc1ccc(OC)c(C2CC(=O)Nc3n[nH]c(-c4ccccc4)c32)c1 (stereo unspecified)

>  <group-label>
no

$$$$
>  <molecule>
O=C(COc1ccccc1Cl)NC1CC1

>  <group-label>
no

$$$$
>  <molecule>
CCCCCCCCOC(=O)C1=C(C)Nc2nnnn2C1c1cccs1 (stereo unspecified)

>  <group-label>
no

$$$$
>  <molecule>
Fc1cccc(/C=N/Nc2cc(N3CCOCC3)ncn2)c1

>  <group-label>
no

$$$$
>  <molecule>
CCOc1ccccc1-n1c(O)c(C=NCc2ccc3c(c2)OCO3)c(=O)[nH]c1=O

>  <group-label>
yes

$$$$
>  <molecule>
COc1ccc(Nc2nc(S(=O)(=O)c3ccc(C)cc3)c(Cl)s2)cc1

>  <group-label>
no

$$$$
>  <molecule>
O=C1CCCC2=C1C(c1cccc(O)c1)c1c(ccc3ncccc13)N2 (stereo unspecified)

>  <group-label>
no

$$$$
>  <molecule>
Cc1ccc2cc(C#N)c(N3CCCN(C(=S)NCCCN(C)C)CC3)nc2c1

>  <group-label>
no

$$$$

Measured values drawn from PubChem BioAssay AID463203 for this set.
